Where do these numbers come from? They come from paper PMC9181926.

Overview of reported IC50 across a group of compounds:
system: Hs578T cells; assay: Antiproliferation assay (cell counting, 48 h) in Hs578T breast cancer cells; format: cell-based, human; conditions: Homo sapiens, Hs-578T; Hs578T cells, 48 h incubation, cell counting
Your answer is read as µM, so omit the unit and give the number.

Some solved cases for reference:
- compound: "COC(=O)[C@]1(C)CCC[C@]2(C)c3cc(O)c(/C=C/C(=O)c4cnccn4)cc3CCC12 (some centres unmarked)"
  quantityKind: "IC50"
  unitsLabel: "µM"
  assayValue: 23.1
- compound: "O=c1[nH]cc(F)c(=O)[nH]1 [Compound 5-FU, 5-fluorouracil, reference compound]"
  quantityKind: "IC50"
  unitsLabel: "µM"
  assayValue: 7.38
- compound: "COC(=O)[C@]1(C)CCC[C@]2(C)c3cc(O)c(C(=O)/C=C/c4ccsc4)cc3CCC12 (some centres unmarked)"
  quantityKind: "IC50"
  unitsLabel: "µM"
  assayValue: 21.5

### Prompt IC50 for COC(=O)[C@]1(C)CCC[C@]2(C)c3cc(O)c(C(=O)/C=C/c4ccncc4)cc3CCC12 (some centres unmarked) ?
### Response 8.69

###

system: MDA-MB-231, MCF-7 and Hs578T breast cancer cell lines; experiment: cells; conditions: Homo sapiens, read-out: IC50 against all the cancer cell lines
quantityKind: IC50

### Prompt Reported IC50 for COC(=O)[C@]1(C)CCC[C@]2(C)c3cc(O)c(C(=O)/C=C/c4cccnc4)cc3CCC12 (stereo partly shown) [Compound 33] : what is it?
### Response 2.21 to 5.89 µM

###

The compounds listed here are annotated with their Selectivity Index for Hs578T.
test system: Hs578T cells; experiment: Antiproliferation assay (cell counting, 48 h) in Hs578T breast cancer cells; format: cell-based, human; settings: FB IC50 relative to Hs578T IC50
The answer should be a number; do not append a unit.

Solved entries (count: 5):
- compound: "COC(=O)[C@]1(C)CCC[C@]2(C)c3cc(O)c(C(=O)/C=C/c4ccncc4)cc3CCC12 (stereo partly shown)"
  quantityKind: "Selectivity Index for Hs578T"
  assayValue: 3.89
- compound: "COC(=O)[C@]1(C)CCC[C@]2(C)c3cc(O)c(/C=C/C(=O)c4cnccn4)cc3CCC12 (stereo partly shown)"
  quantityKind: "Selectivity Index for Hs578T"
  assayValue: 0.88
- compound: "COC(=O)[C@]1(C)CCC[C@]2(C)c3cc(O)c(/C=C/C(=O)c4ccccn4)cc3CCC12 (stereo partly shown)"
  quantityKind: "Selectivity Index for Hs578T"
  assayValue: 1.39
- compound: "COC(=O)[C@]1(C)CCC[C@]2(C)c3cc(O)c(C(=O)/C=C/c4ccsc4)cc3CCC12 (stereo partly shown)"
  quantityKind: "Selectivity Index for Hs578T"
  assayValue: 2.05
- compound: "COC(=O)[C@]1(C)CCC[C@]2(C)c3cc(O)c(C(=O)/C=C/c4cnc5ccccc5c4)cc3CCC12 (stereo partly shown)"
  quantityKind: "Selectivity Index for Hs578T"
  assayValue: 2.09

### Prompt Name the reported Selectivity Index for Hs578T value associated with the compound COC(=O)[C@]1(C)CCC[C@]2(C)c3cc(O)c(C(=O)/C=C/c4cccnc4)cc3CCC12 (stereo partly shown)
### Response 3.50

### Prompt Query (compound): O=c1[nH]cc(F)c(=O)[nH]1 [Compound 5-FU, 5-fluorouracil, reference compound] ; field requested: Selectivity Index for Hs578T
### Response 1.28
